Each item that follows carries a reported inhibition.
protocol description: growth inhibitors of tim10-1 mutant yeast, confirmation, single concentration, luminescence, S. cerevisiae (AID 463213);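 further: tim10-1 mutant grown at permissive 25 °C to find synthetic lethal compounds; 0% = DMSO yeast wells and 100% = medium wells without yeast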
measurement setup: S. cerevisiae tim10-1 ts strain growth, BacTiter-Glo, 24 h; at 20 µM; stronger effect = higher value
Out of some 7,400 compounds screened, about 4,100 (55%) were called active. So high a share suggests a set chosen from earlier hits. The list is a sample of the results.
Record the value in %, omitting the unit from your answer.

Solved entries:
compound	endpoint value
Fc1ccc(/C=N/Nc2nc(-c3cccnc3)nc3ccccc23)cc1	33.9
O=c1c(Cl)c(NCc2ccc(F)cc2Cl)cnn1C12CC3CC(CC(C3)C1)C2	44.2
N/C(Cc1ccc([N+](=O)[O-])cc1)=N\OC(=O)C1CCCCC1	79.8
O=S(=O)(Nc1cccc(Oc2ccc(Cl)cc2)n1)c1ccc(F)cc1	45
O=C(C(=O)N1CCc2ccccc2C1)c1c[nH]c2ccccc12	12.1

Query string: Name the reported inhibition value associated with the compound COc1ccc(C(=O)/C=C/c2ccc(-c3ccccc3)cc2)cc1CSCC(=O)O
Result string: 22.9

Query string: Given the compound CC(=O)Oc1ccc2c(c1)C(=O)c1ccccc1C2=O , what is its reported inhibition?
Result string: 31.1

Query string: # lookup: inhibition of CC(=O)/C(=N\Nc1ccc(Cl)cc1Cl)Sc1cccc2cccnc12
Result string: 43

Query string: Which value of inhibition has been reported for CCC(=O)N1CCc2cc(S(=O)(=O)NC(C(=O)N3CCc4ccccc4C3)C(C)C)ccc21 (stereo not given) in the records?
Result string: 22.2

Query string: Reported inhibition, compound CCN1CCN(C(c2cccnc2)c2cc(Cl)c3cccnc3c2O)CC1 (stereo not given) : ____
Result string: 34
